system-name: human type 1 glycine transporter (GlyT1) (Homo sapiens)
Construct: T98G cells (glioma cells) expressing human type 1 glycine transporter (GlyT1) were used
Sequence (P48067 1-706): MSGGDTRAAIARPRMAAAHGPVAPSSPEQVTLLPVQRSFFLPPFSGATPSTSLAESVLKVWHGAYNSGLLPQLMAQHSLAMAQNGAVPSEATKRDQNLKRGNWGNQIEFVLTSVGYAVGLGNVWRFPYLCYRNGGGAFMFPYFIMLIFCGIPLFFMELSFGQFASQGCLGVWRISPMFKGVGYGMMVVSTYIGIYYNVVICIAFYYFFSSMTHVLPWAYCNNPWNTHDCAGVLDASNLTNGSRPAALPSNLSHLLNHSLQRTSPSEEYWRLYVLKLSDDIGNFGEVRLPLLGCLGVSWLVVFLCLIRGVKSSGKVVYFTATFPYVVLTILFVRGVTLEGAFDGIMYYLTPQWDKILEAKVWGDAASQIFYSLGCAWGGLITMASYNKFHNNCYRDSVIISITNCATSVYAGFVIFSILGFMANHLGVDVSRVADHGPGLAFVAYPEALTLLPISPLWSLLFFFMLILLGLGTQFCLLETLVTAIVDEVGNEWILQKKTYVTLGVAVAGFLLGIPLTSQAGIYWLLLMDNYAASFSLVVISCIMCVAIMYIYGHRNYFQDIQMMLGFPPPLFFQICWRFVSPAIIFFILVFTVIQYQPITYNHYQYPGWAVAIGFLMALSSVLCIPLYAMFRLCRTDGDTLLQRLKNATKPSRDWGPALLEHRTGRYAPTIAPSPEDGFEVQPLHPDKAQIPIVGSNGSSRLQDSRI
experiment-summary: Glycine uptake inhibition experiment ([3H]glycine uptake)
Type: cell-based
condition-summary: GlyT1
measured-parameter: pIC50
Worth noting: pIC50 values are minus log10 of concentrations stated in mol/L.

Fill blank: measured pIC50 of the compound O=C(NC(c1ccccc1Cl)[C@]1(O)CC[C@@H](F)CC1)c1cc(C(F)(F)F)ncc1Cl (single isomer, unassigned) is ____.
6.49

Look up pIC50: O=C(NC(c1ccccc1F)[C@]1(O)CC[C@H](F)CC1)c1nccc(C(F)(F)F)c1Cl (single isomer, unassigned)
6.64

What does the record list as pIC50 for `N#Cc1cccc([C@H](NC(=O)c2nccc(C(F)(F)F)c2Cl)C2(O)CCCC2)c1` ?
6.59

Bench note: what pIC50 did O=C(NC(c1cccc(F)c1)C1(O)CCCC1)c1cccc(C(F)(F)F)c1Cl (single isomer, unassigned) [Compound 72] show?
5.15

pIC50 for `O=C(N[C@H](c1cccc(Br)c1)[C@]1(O)CC[C@@H](F)CC1)c1nccc(C(F)(F)F)c1Cl` ?
5.21

// returns reported pIC50 for input CCn1cc(-c2cccc(C(NC(=O)c3ccc(F)cc3C(F)(F)F)C3(O)CCC(F)(F)CC3)c2)cn1 (centres unmarked) [Compound 192]
6.47

Requested field: pIC50. Item: CC(=O)c1ccc(-c2cccc(C(NC(=O)c3cccc(C(F)(F)F)c3Cl)C3(O)CCCC3)c2)cc1 (centres unmarked)
6.17

Look at this compound and give its reported pIC50. CS(=O)(=O)c1cc(C(F)(F)F)ccc1C(=O)NC(c1cccc(F)c1Cl)[C@]1(O)CC[C@@H](F)CC1 (single isomer, unassigned)
7.00

Bench note: what pIC50 did O=C(NC(c1cccnc1Cl)[C@]1(O)CC[C@@H](F)CC1)c1cc(C(F)(F)F)ccc1Cl (single isomer, unassigned) show?
6.37

May I ask what pIC50 has been recorded for O=C(NC(c1cccc(-c2cccnc2)c1)C1(O)CCCC1)c1nccc(C(F)(F)F)c1Cl (centres unmarked) [Compound 20] ?
7.77

What does the record list as pIC50 for CCn1cc(-c2cccc(C(NC(=O)c3nccc4ccccc34)C3(O)CCC(F)(F)CC3)c2)cn1 (centres unmarked) ?
6.37

Item under review: O=C(NC(c1cccc(Br)c1)C1(O)CCCCC1)c1nccc(C(F)(F)F)c1Cl (single isomer, unassigned) [Compound 42] . Reported pIC50?
7.42

I am curious: what pIC50 value has been reported for N#Cc1cccc(C(NC(=O)c2cccc(C(F)(F)F)c2Cl)C2(O)CCCC2)c1 (centres unmarked) ?
6.40

Consider the compound shown here: CCn1cc(-c2cccc(C(NC(=O)c3cc(Cl)ccc3Cl)C3(O)CCC(F)(F)CC3)c2)cn1 (single isomer, unassigned) [Compound 194] What is its recorded pIC50?
6.12

Request the reported pIC50 associated with O=C(NC(c1cccc(F)c1Cl)[C@]1(O)CC[C@@H](F)CC1)c1nccc2ncccc12 (single isomer, unassigned)
5.68

Bench note: what pIC50 did O=C(NC(c1cccc(F)c1Cl)[C@]1(O)CC[C@@H](F)CC1)c1ccccc1C1CC1 (single isomer, unassigned) show?
5.55

# get_value(readout='pIC50', item= Cc1cc(C(=O)NC(c2cccc(F)c2Cl)[C@]2(O)CC[C@@H](F)CC2)c2cnn(C(C)C)c2n1 (single isomer, unassigned) )
5.77

Can you share its pIC50? I mean this compound: O=C(NC(c1ccc(Cl)nc1)[C@]1(O)CC[C@@H](F)CC1)c1nccc(C(F)(F)F)c1Cl (single isomer, unassigned)
6.05

Fill blank: measured pIC50 of the compound O=C(NC(c1cccc(F)c1Cl)[C@]1(O)CC[C@@H](F)CC1)c1cc(-n2nccn2)ccc1Cl (single isomer, unassigned) is ____.
6.16

Give its pIC50 value. Item: O=C(NC(c1cccc(Cl)n1)[C@]1(O)CC[C@@H](F)CC1)c1ccc(C(F)(F)F)cc1Cl (single isomer, unassigned)
6.62

Given the entry Cn1nc(C(F)(F)F)cc1C(=O)NC(c1cccc(F)c1Cl)[C@]1(O)CC[C@@H](F)CC1 (single isomer, unassigned) , report its measured pIC50.
5.60

What value of pIC50 has been reported for the following compound? O=C(NC(c1cccc(Cl)n1)C1(O)CCC(F)(F)CC1)c1nccc(C(F)(F)F)c1Cl (single isomer, unassigned)
7.11

Item CCn1cc(-c2cccc(C(NC(=O)c3ncccc3Cl)C3(O)CCCC3)c2)cn1 (centres unmarked) has what recorded pIC50?
5.34

Param item = O=C(NC(c1ccccc1F)C1(O)CCCC1)c1nccc(C(F)(F)F)c1Cl (single isomer, unassigned) [Compound 61] ; retrieve measured pIC50.
5.52

Fill in the blank: the reported pIC50 of `O=C(N[C@@H](c1cccc(-c2ccccn2)c1)C1(O)CCCC1)c1nccc(C(F)(F)F)c1Cl` is ____.
7.13

Need pIC50, item O=C(NC(c1ccccc1Cl)[C@]1(O)CC[C@@H](F)CC1)c1nccc(C(F)(F)F)c1Cl (single isomer, unassigned) [Compound 197]
7.28

###

system-name: human type 1 glycine transporter (GlyT1) (Homo sapiens, UniProt P48067)
Construct: T98G cells (glioma cells) expressing human type 1 glycine transporter (GlyT1) were used
experiment-summary: Glycine uptake inhibition experiment ([3H]glycine uptake)
Format: cell-based
condition-summary: GlyT1
Please go through the items and note down their log10 IC50.
Give log10 of IC50, with IC50 taken in nM.

Look up log10 IC50: CCn1cc(-c2cccc(C(NC(=O)c3cccc(C(F)(F)F)c3Cl)C3(O)CCCCC3)c2)cn1 (stereo not shown)
1.64

Report log10 IC50 for O=C(NC(c1cccc(F)c1Cl)[C@]1(O)CC[C@@H](F)CC1)c1ccccc1-n1cnnn1 (single isomer, unassigned) please.
3.38

Reported log10 IC50 for O=C(NC(c1cccc(F)c1)C1(O)CCCC1)c1nccc(C(F)(F)F)c1Cl (single isomer, unassigned) [Compound 53] : what is it?
3.18

Please give the measured log10 IC50 for this molecule: O=C(NC(c1cccc(-n2cccn2)c1)C1(O)CCCC1)c1nccc(C(F)(F)F)c1Cl (single isomer, unassigned) [Compound 83]
3.59

Which log10 IC50 is listed for O=C(NC(c1cc(F)cc(Cl)c1)[C@]1(O)CC[C@@H](F)CC1)c1nccc(C(F)(F)F)c1Cl (single isomer, unassigned) ?
3.26

What value of measured log10 IC50 is listed for O=C(NC(c1cccc(F)c1Cl)[C@]1(O)CC[C@@H](F)CC1)c1cccc(C(F)(F)F)c1-n1nccn1 (single isomer, unassigned) ?
2.90

May I ask what log10 IC50 has been recorded for O=C(NC(c1cccc(F)c1Cl)[C@]1(O)CC[C@@H](F)CC1)c1ccccc1Cl (single isomer, unassigned) ?
3.00

So what's the measured log10 IC50 for this one? O=C(NC(c1ccc(F)cc1Cl)C1(O)CCCC1)c1nccc(C(F)(F)F)c1Cl (stereo not shown) [Compound 95]
2.11

What value of log10 IC50 has been reported for the following molecule? CCn1cc(-c2cccc(C(NC(=O)c3cccc(C)c3Cl)C3(O)CCC(F)(F)CC3)c2)cn1 (single isomer, unassigned) [Compound 152]
3.11

Suppose we examine the molecule O=C(NC(c1cccc(Cl)n1)C1(O)CCCC1)c1nccc(C(F)(F)F)c1Cl (stereo not shown) ; what log10 IC50 value has been reported?
1.32

Need log10 IC50, item O=C(NC(c1cncc(Cl)c1)[C@]1(O)CC[C@@H](F)CC1)c1nccc(C(F)(F)F)c1Cl (single isomer, unassigned) [Compound 243]
3.18

Find the recorded log10 IC50 belonging to CCn1cc(-c2cccc(C(NC(=O)c3cc(C(F)(F)F)cnc3Cl)C3(O)CCC(F)(F)CC3)c2)cn1 (stereo not shown) and report it.
2.95

Find the recorded log10 IC50 belonging to Cn1nc2c(c1C(=O)NC(c1cccc(F)c1Cl)[C@]1(O)CC[C@@H](F)CC1)CCCC2 (single isomer, unassigned) and report it.
3.23
